Recorded values, source paper PMC6112376.

System: Caenorhabditis elegans (Bristol N2)
test_description: C. elegans larval development and growth assay
setup_conditions: 75 µM
Some compounds, each annotated with its measured EXT: mean difference in nematode size relative to plate controls.
Answer field: number only, no words.

QUERY: Give its EXT: mean difference in nematode size relative to plate controls value. Item: Cl.N=C1C=CC(=C(c2ccc(N)cc2)c2ccc(N)cc2)C=C1 [C.I. Basic red 9 monohydrochloride]
RESULT: 1.032

QUERY: Give its EXT: mean difference in nematode size relative to plate controls value. Item: Nc1ccc(N)c2c1C(=O)c1ccccc1C2=O [1,4-Diaminoanthraquinone]
RESULT: 0.3422

More entries:
QUERY: Give its EXT: mean difference in nematode size relative to plate controls value. Item: O=C(Nc1ccccc1)Nc1ccccc1 [Diphenylurea]
RESULT: 0.1069

QUERY: Give its EXT: mean difference in nematode size relative to plate controls value. Item: O=C(O)c1cc(O)c2c(c1)C(=O)c1cccc(O)c1C2=O [Rhein]
RESULT: 0.2342
